Where these numbers come from: patent US20260137707A1

System: ATXN2-luc; further: unit not given here
Conditions: average ATXN2-luc response of H2 and S1 cells, 1 μm
Under this convention, condition met denotes Luc at 1 μm strictly below 100 and condition not met denotes Luc at 1 μm at or above 100.

Compound: CS(=O)(=O)Nc1ccc(Cc2noc(-c3ccc4[nH]cc(CCN)c4c3)n2)cc1
Class: condition not met
//
Compound: C[n+]1cc2c3c(ccc2c2ccc4cc5c(cc4c21)OCO5)OCO3
Class: condition not met
//
Compound: CCCCCCCCCOc1ccc2[nH]cc(CCN)c2c1
Class: condition not met
//
Compound: C1CCC(N=C(NC23CC4CC(CC(C4)C2)C3)N2CCOCC2)CC1.Cl [U-37883A]
Class: condition met
//
Compound: CCN(CC)CCCCCCCCOC(=O)c1cc(OC)c(OC)c(OC)c1
Class: condition met

Then this compound:
Exercise: Hello, is Luc at 1 μm of the following compound strictly smaller than 100? C[C@@H]1O[C@@H](O[C@@H]2C=C3CC[C@@H]4[C@H](CC[C@]5(C)[C@@H](c6ccc(=O)oc6)CC[C@]45O)[C@@]3(C)CC2)[C@H](O)[C@H](O)[C@H]1O
Solution: condition met

---

Assay: in vitro
Conditions: human
Under this convention, label 1 denotes viability at 24 h strictly below 90% and label 0 denotes viability at 24 h at or above 90%.

Use these answered entries as a reference point.
Compound: CCNC(=O)c1noc(-c2cc(C(C)C)c(O)cc2O)c1-c1ccc(CN2CCOCC2)cc1 [Luminespib (NVP-AUY922)]
Class: label 0

Compound: C[C@@H](Oc1ccc2[nH]nc(/C=C/c3cnn(CCO)c3)c2c1)c1c(Cl)cncc1Cl [LY-2874455]
Class: label 1

Compound: CC(C)c1cc(-c2n[nH]c(=O)n2-c2ccc3c(ccn3C)c2)c(O)cc1O [Ganetespib]
Class: label 1

Compound: CNC(=O)c1nn(C)c2c1C(C)(C)Cc1cnc(Nc3ccc(N4CCN(C)CC4)cc3)nc1-2 [Milciclib]
Class: label 1

Then this compound:
Exercise: Hello, is viability at 24 h of the following compound strictly smaller than 90%? O=C(NC1CCNCC1)c1n[nH]cc1NC(=O)c1c(Cl)cccc1Cl [AT7519]
Solution: label 1

---

Tested on: ATXN2-luc; further: unit not given here
Conditions: average ATXN2-luc response of H2 and S1 cells, 1 μm
I'd appreciate it if you could supply Luc at 1 μm values for the items below.
One number for each entry.

These recorded examples may help you get a feel for the data.
Compound: COc1ccc(CN2CCN(C(c3ccc(F)cc3)c3ccc(F)cc3)CC2)c(OC)c1OC [LOMERIZINE DiHCl]
Measurement Kind: Luc at 1 μm
Measured Number: 102
--
Compound: CO[C@H]1[C@@H](O)[C@@H](C)O[C@@H](O[C@H]2CC[C@]3(C)[C@H]4CC[C@]5(C)[C@@H](C6=CC(=O)OC6)CC[C@]5(O)[C@@H]4CC[C@]3(O)C2)[C@@H]1O
Measurement Kind: Luc at 1 μm
Measured Number: 115

Could you now consider this next compound?
Exercise: Enter measured Luc at 1 μm, system ATXN2-luc, for the compound shown: C[C@H]1O[C@@H](O[C@H]2CC[C@]3(C=O)[C@H]4CC[C@]5(C)[C@@H](C6=CC(=O)OC6)CC[C@]5(O)[C@@H]4CC[C@]3(O)C2)C[C@H](O)[C@@H]1O [Helveticoside]; further: unit not given here
Solution: 118
